System: SK-MEL-5 melanoma
measurement protocol: NCI-60 one-dose screen, 48 h (100 = growth as untreated, 0 = no growth, -100 = all killed)
condition context: 10 µM unless noted
The panel holds about 83,000 compounds, 20% with a hit somewhere; the sample as a whole holds those more often. Active and inactive are the calls of the source. Rule for the calls: active = growth percent below 10; inactive = the rest.
measure: growth

# molecule, result
records = [
    ("Cc1ccc(NC(C(=O)c2ccccc2)c2ccccc2)cc1 (centres undefined)", "22.1% (inactive)"),
    ("N#Cc1c(-c2cccc([N+](=O)[O-])c2)nc(SCC(=O)c2ccc(Cl)cc2)[nH]c1=O", "106% (inactive)"),
    ("COc1cc2nc(-c3ccc(Cl)cc3)cc(OCCCN3CCCC3)c2cc1OC", "-8.4% (active)"),
    ("CCCC/C=N/NC(=S)NCc1ccccc1", "97.1% (inactive)"),
    ("O=C(c1ccccc1)N1N=C(c2ccc(-n3ccc(C(F)(F)F)n3)c(F)c2)CC1c1ccc[nH]1 (centres undefined)", "103% (inactive)"),
    ("O=C1Nc2ccccc2/C1=C\\c1c(-c2ccc(F)cc2)nc2ccccn12", "58% (inactive)"),
    ("N=C(N)c1ccc(OCCCCCCCCCCOc2ccc(C(=N)N)cc2)cc1", "-96.1% (active)"),
    ("O=S(=O)(NCCCNc1nccc(-c2c(-c3cccc(O)c3)nc3occn23)n1)c1ccc(Cl)cc1", "39.8% (inactive)"),
    ("CNCCn1c(=O)c2cc(OC)c(OC)cc2c2ccc3cc4c(cc3c21)OCO4", "-60.7% (active)"),
    ("Nc1n[nH]c2cccc(C#Cc3cccc(C(=O)Nc4cccc(C(F)(F)F)c4)c3)c12", "53.8% (inactive)"),
    ("COc1ccc(C(=O)c2nc3ccccc3n2CC(=O)c2ccc(Cl)cc2)cc1", "20.5% (inactive)"),
    ("COc1cc2c3c(c4c5ccccc5[nH]c4c2c(OC)c1OC)C(=O)N(CCN1CCOCC1)C3=O", "54.7% (inactive)"),
    ("Cn1cc(-c2csc(-c3c[nH]c4ccccc34)n2)c2ccnc(Cl)c21", "50% (inactive)"),
    ("C[C@@H](Nc1ncnc2ccc(-c3cnc(N)nc3)cc12)c1ccc(F)cc1", "73.2% (inactive)"),
    ("COc1cc(NC(C)CCCNC(=O)CCC(=O)NCCCNCCCCCCCCCCNCCCNC(=O)CCC(=O)NCCCC(C)Nc2cc(OC)cc3cccnc23)c2ncccc2c1 (centres undefined)", "91% [8 µM] (inactive)"),
    ("CCC(CC)NCC(C)(C)O", "110% (inactive)"),
    ("Fc1ccc(-c2cn3c(nc4ccccc43)c(-c3ccccc3)n2)cc1", "88.6% (inactive)"),
    ("Oc1ccc(OCCOc2ccc(O)cc2)cc1", "26.8% (inactive)"),
    ("O=C(CCN1CCCC1)Nc1ccc2c(Nc3ccc(Br)cc3)c3ccccc3nc2c1", "31.7% (inactive)"),
    ("COc1ccc(C(=O)c2cc(C)c(OC)c(C)c2)c(OC)c1OC(=O)C(Cl)Cl", "-20.8% (active)"),
    ("CC1(C)NCCC[C@]2(C)[C@H]3CC[C@@H]4[C@H]5[C@H](C(=O)/C=C/c6ccco6)CC[C@]5(CO)CC[C@@]4(C)[C@]3(C)CC[C@@H]12", "93.4% (inactive)"),
    ("CC(C)(C)c1cc(C=O)cc(C(C)(C)C)c1O", "92% (inactive)"),
    ("COc1ccc(OC)c(CCn2cncc2-c2c[nH]c3ccccc23)c1", "49.7% (inactive)"),
    ("CCCCCCCC(=O)OCC/C=C/C1OC1C1OC(=O)/C=C\\C=C\\C(=O)N(C(C)=O)C(=O)/C=C(/C)CCC2OC2C1OC(=O)NC(C)=O (centres undefined)", "67.5% (inactive)"),
    ("CCCCOc1ccc(/C=N/Nc2cc(C)nc3ccc(Br)cc23)cc1", "84.3% (inactive)"),
    ("CCOC(=O)/C(C#N)=C1/NNC(=Nc2cccnc2)S1", "98.6% (inactive)"),
    ("C=C1C(=O)O[C@H]2[C@H]1CC/C(COC(=O)NCc1c[nH]c3ccc(Br)cc13)=C\\CC[C@@]1(C)O[C@@H]21", "-27.1% (active)"),
    ("C=C(CBr)[C@@H]1CC[C@]2(COC(C)=O)CC[C@]3(C)[C@H](CC[C@@H]4[C@@]5(C)CCCNC(C)(C)[C@@H]5CC[C@]43C)[C@@H]12", "19.9% (inactive)"),
    ("O=C1Nc2ccccc2/C1=C\\c1c(-c2ccccc2)nc2ccccn12", "17.3% (inactive)"),
    ("COC(=O)/C=C1\\S/C(=N\\NC(=O)c2cc3ccc2/C=C\\c2ccc(cc2)/C=C\\3)N(c2ccccc2)C1=O", "69.3% (inactive)"),
    ("CC(C)(C)c1cc(/C=N/NC(=O)c2ccccc2NC(=O)c2cccs2)c(O)c(C(C)(C)C)c1", "22.9% (inactive)"),
    ("COc1ccc(C/C(=C(\\C)c2ccc(OCCN3CCCC3)cc2)c2ccc(OCCN3CCCC3)cc2)cc1", "-48.8% (active)"),
    ("CCNc1nc2ccc(Nc3ccnc4cc(Cl)ccc34)cc2[nH]1", "82.6% (inactive)"),
    ("COC(=O)/C=C1\\S/C(=N\\NC(=O)c2cc3ccc2/C=C\\c2ccc(cc2)/C=C\\3)N(Cc2ccccc2)C1=O", "82.3% (inactive)"),
    ("COc1cc(CC(=O)c2ccc(O)c(OC)c2)ccc1O", "101% (inactive)"),
    ("[O-][n+]1c(Cl)cc(Cl)c2ccccc21", "109% (inactive)"),
    ("O=S(=O)(NCCNc1nccc(-c2c(-c3cccc(O)c3)nc3occn23)n1)c1ccccc1", "33.7% (inactive)"),
    ("O=C(c1nnc(Nc2ccccc2Br)o1)c1c[nH]c2ccccc12", "89.5% (inactive)"),
    ("CCOC(=O)c1ccc2c(c1)ncn2-c1ccc(NC(=O)Nc2cccc(C)c2)cc1", "83.2% (inactive)"),
]

###

System: A549/ATCC NSCLC
measurement protocol: NCI-60 one-dose screen, 48 h
condition context: 10 µM unless noted
The panel holds about 83,000 compounds, 20% with a hit somewhere; the sample as a whole holds those more often. The source made the active and inactive calls. Rule for the calls: active = growth percent below 10; inactive = the rest.
Outcome codes: active, inactive

# molecule, answer label
records = [
    ("CCOC(=O)C1=C(C)NC(SCc2cc(=O)oc3ccc(F)cc23)=N[C@@H]1c1cccc2ccccc12", "inactive"),
    ("O=C1Nc2ccccc2/C1=C\\c1c(-c2ccc(F)cc2)nc2ccccn12", "inactive"),
    ("COc1ccc(/C=C2\\Oc3cc(OCCCN4CCCCC4)ccc3C2=O)cc1OC", "inactive"),
    ("Cc1cc2nc3c4cc([N+](=O)[O-])ccc4n(CCN(C)C)c3nc2cc1C", "active"),
    ("N#Cc1c(NC(=O)NCc2ccccc2)sc2c1CCCC2", "inactive"),
    ("COC(=O)/C=C1\\S/C(=N\\NC(=O)c2cc3ccc2/C=C\\c2ccc(cc2)/C=C\\3)N(Cc2ccccc2)C1=O", "inactive"),
    ("Cc1cccc(C)c1N=c1oc2ccc(Cl)cc2nc1-c1ccccc1O", "inactive"),
    ("CC(=O)c1ccc(NS(=O)(=O)c2cccc(C(=O)Nc3ccc(Br)cc3)c2)cc1", "inactive"),
    ("COc1cc(C2C3CC4CCCC[C@H]4N3[C@@]3(C(=O)Nc4cc(Cl)ccc43)C2C(=O)c2nc3ccccc3[nH]2)cc(OC)c1OC (some centres undefined)", "inactive"),
]

###

Tested on: SK-MEL-28 melanoma
measurement protocol: NCI-60 one-dose screen, 48 h (100 = growth as untreated, 0 = no growth, -100 = all killed)
condition context: 10 µM unless noted
About 83,000 compounds went through this panel and 20% of them were active in at least one assay; those are over-represented in the sample as a whole. Active and inactive are the calls of the source. Rule for the calls: active = growth percent below 10; inactive = the rest.
Entries and their growth values follow.

# compound, growth
rows = [
    ("COc1cc(/C=C\\c2cc(OC)c(OC)c(OC)c2)cc(NC(=O)/C=C/c2cc(OC)c(OC)c(OC)c2)c1OC", "47.6% (inactive)"),
    ("O=C(CCN1CCCC1)Nc1ccc2c(NCCCCc3ccccc3)c3ccccc3nc2c1", "-63.4% (active)"),
    ("Cc1nnc2c(Cc3ccccc3)nc3ccccc3n12", "103% (inactive)"),
    ("N#CC(C(=O)/C(=N/NC(=O)c1ccccc1O)C(C#N)c1ccccc1)c1ccccc1 (stereo not drawn)", "83.7% (inactive)"),
    ("Cc1ccc(-c2[nH][nH]c(=O)c2-c2nc3ccccc3s2)cc1", "111% (inactive)"),
    ("c1ccc(-c2c(-c3ccccc3)[n+](Cc3ccc4ccccc4c3)c(-c3cccc4ccccc34)n2Cc2ccc3ccccc3c2)cc1", "-71.8% (active)"),
    ("COc1cc2nc(-c3ccc(Cl)cc3)cc(OCCCN3CCCCC3)c2cc1OC", "60% (inactive)"),
    ("CN[C@@H](C)C(=O)N[C@H]1CCS[C@H]2CC(C)(C)[C@@H](C(=O)N[C@H]3c4ccccc4C[C@H]3OCC#CC#CCO[C@@H]3Cc4ccccc4[C@@H]3NC(=O)[C@H]3N4C(=O)[C@@H](NC(=O)[C@H](C)NC)CCS[C@H]4CC3(C)C)N2C1=O", "107% (inactive)"),
]
